# ASSAY CONDITIONS: buffer; pH 7.4; 200.0 µM
This section presents compounds with their documented solubility kinetic values.

Below: 2 compounds and their reported solubility kinetic.
CHEM SMILES: NC(=O)CSc1nc2ccccc2c(=O)n1-c1ccccc1
solubility kinetic: > 46.7 µg/mL
//
CHEM SMILES: CC(=O)c1c(C)[nH]c(=S)c(C#N)c1-c1ccc(Cl)cc1
solubility kinetic: > 45.4 µg/mL

The record that follows has no solubility kinetic shown yet.
Measured solubility kinetic of O=C(OCCCN1CCOCC1)c1ccc(O)c(O)c1 : > 42.2 µg/mL

###

# ASSAY CONDITIONS: buffer; pH 7.4; 200.0 µM
PARAMETER MEASURED: solubility kinetic

COMPOUND: O=C(O)CC1c2ccccc2CCN1S(=O)(=O)c1ccccc1 (stereo not given)
solubility kinetic: > 49.7 µg/mL
//
COMPOUND: CCN1C(=O)c2ccc(C(=O)Nc3ccc(O)cc3C)cc2C1=O
solubility kinetic: > 48.7 µg/mL
//
COMPOUND: CCOc1ccc(S(=O)(=O)NC(=O)c2ccccc2)cc1
solubility kinetic: > 45.8 µg/mL
//
COMPOUND: COc1ccc2c(c1)c(C(=O)C(C)N1CCCCC1)c(C)n2C (stereo not given)
solubility kinetic: < 0.3 µg/mL
//
COMPOUND: CNC(=S)Nc1ccc([N+](=O)[O-])cc1
solubility kinetic: > 31.7 µg/mL

In plain terms, COc1ccc(CNC(=O)COC(=O)CCc2c[nH]c3ccccc23)cc1 has a documented solubility kinetic of 44.4 µg/mL

Consider Cc1ccc(C(=O)NCCNS(=O)(=O)c2ccccc2[N+](=O)[O-])cc1 . Its measured solubility kinetic is > 54.5 µg/mL

So, CN1CCN(NS(=O)(=O)c2ccc(Cl)cc2)CC1 ? Its solubility kinetic was > 43.5 µg/mL

Input COc1cccc2cc(C(=O)NC3CC4CCC3C4)oc12 (stereo not given) . Output solubility kinetic: 31.6 µg/mL

Lab note: CN1C=CC=C/C1=C1/N=C(c2ccccc2)OC1=O gave solubility kinetic of > 37.8 µg/mL

###

# Lookup of reported solubility kinetic keyed by entry
# ASSAY CONDITIONS: buffer; pH 7.4; 200.0 µM

Use the examples below as a reference point.
COMPOUND: O=C(O)CC1(CC(=O)Nc2ccccc2Br)CCCC1
solubility kinetic: > 51 µg/mL
--
COMPOUND: CC1SCC(NC(=O)c2cccc(Cl)c2)CS1 (stereo not drawn)
solubility kinetic: > 43.2 µg/mL

Kindly consider the entry below.
Memo: O=S(=O)(/N=C(/Nc1cccnc1)c1ccccc1)c1ccc(F)cc1F , reported solubility kinetic: > 56 µg/mL

###

# ASSAY CONDITIONS: buffer; pH 7.4; 200.0 µM
solubility kinetic reference

# example entries with known answers
MOLECULE: O=C(CSc1nc2ccccc2[nH]1)NCc1ccc(F)cc1
PARAMETER MEASURED: solubility kinetic
REPORTED VALUE: > 47.3 µg/mL
--
MOLECULE: CN(c1ccc(OCC(=O)Nc2ccccc2C(=O)O)cc1)S(=O)(=O)c1ccc(Cl)cc1
PARAMETER MEASURED: solubility kinetic
REPORTED VALUE: > 71.2 µg/mL
--
MOLECULE: CCOc1ccc(CCNC(=O)c2cnccn2)cc1OCC
PARAMETER MEASURED: solubility kinetic
REPORTED VALUE: > 47.3 µg/mL
--
MOLECULE: CC(C)(C)NS(=O)(=O)c1ccc(NC(=O)CS(=O)(=O)Cc2ccccc2)cc1
PARAMETER MEASURED: solubility kinetic
REPORTED VALUE: > 63.7 µg/mL

Entry Cc1ccc([N+](=O)[O-])cc1NC(=O)Cc1ccc(F)cc1 ; solubility kinetic = < 0.3 µg/mL

Field solubility kinetic (entry N#CCCN(C(=O)COC(=O)CCC(=O)c1cccs1)c1ccccc1 ) reads > 55.6 µg/mL

# solubility kinetic (molecule: Cc1nn(-c2ccccc2)c(Cl)c1C(=O)N1CCN(C)CC1 ) is > 47.8 µg/mL

Measured solubility kinetic of CC(=O)CCn1cc([N+](=O)[O-])nc1C : > 29.6 µg/mL

Form field solubility kinetic, entry NS(=O)(=O)c1cccc(NS(=O)(=O)c2cccc(C(F)(F)F)c2)c1 : > 57.1 µg/mL

Reported solubility kinetic of COc1cc(C(=S)N2CCOCC2)cc(OC)c1OC : > 44.6 µg/mL

In plain terms, CN(C)CCn1c(=S)[nH]c2ccc(Cl)cc2c1=O has a documented solubility kinetic of > 42.6 µg/mL

Reported solubility kinetic ( O=C(COC(=O)c1cc(=O)[nH]c(=O)[nH]1)Nc1ccccc1F ) = > 46.1 µg/mL

Sure, the documented solubility kinetic for O=C(NCCN1CCOCC1)c1cc(Br)ccc1Cl is > 52.1 µg/mL

Entry under test: CN1CCN(NC(=S)NC(C)(C)CC(C)(C)C)CC1 . Its solubility kinetic was > 43 µg/mL

Recorded result, CC1=C([N+](=O)[O-])C(c2ccc(Cl)cc2)NC(=O)N1 (stereo not given) , solubility kinetic: > 40.2 µg/mL

Value source: PubChem BioAssay AID1996
